Measured Dmax values are reported for all entries that follow.
- target-system: HiBit-BRG1 fusion protein in stable HeLa cell line expressing HiBit-BRG1 and LgBit (Homo sapiens)
- Construct: expressed in transfected cells
- Sequence (P51532 whole entry, the tested form may be a part): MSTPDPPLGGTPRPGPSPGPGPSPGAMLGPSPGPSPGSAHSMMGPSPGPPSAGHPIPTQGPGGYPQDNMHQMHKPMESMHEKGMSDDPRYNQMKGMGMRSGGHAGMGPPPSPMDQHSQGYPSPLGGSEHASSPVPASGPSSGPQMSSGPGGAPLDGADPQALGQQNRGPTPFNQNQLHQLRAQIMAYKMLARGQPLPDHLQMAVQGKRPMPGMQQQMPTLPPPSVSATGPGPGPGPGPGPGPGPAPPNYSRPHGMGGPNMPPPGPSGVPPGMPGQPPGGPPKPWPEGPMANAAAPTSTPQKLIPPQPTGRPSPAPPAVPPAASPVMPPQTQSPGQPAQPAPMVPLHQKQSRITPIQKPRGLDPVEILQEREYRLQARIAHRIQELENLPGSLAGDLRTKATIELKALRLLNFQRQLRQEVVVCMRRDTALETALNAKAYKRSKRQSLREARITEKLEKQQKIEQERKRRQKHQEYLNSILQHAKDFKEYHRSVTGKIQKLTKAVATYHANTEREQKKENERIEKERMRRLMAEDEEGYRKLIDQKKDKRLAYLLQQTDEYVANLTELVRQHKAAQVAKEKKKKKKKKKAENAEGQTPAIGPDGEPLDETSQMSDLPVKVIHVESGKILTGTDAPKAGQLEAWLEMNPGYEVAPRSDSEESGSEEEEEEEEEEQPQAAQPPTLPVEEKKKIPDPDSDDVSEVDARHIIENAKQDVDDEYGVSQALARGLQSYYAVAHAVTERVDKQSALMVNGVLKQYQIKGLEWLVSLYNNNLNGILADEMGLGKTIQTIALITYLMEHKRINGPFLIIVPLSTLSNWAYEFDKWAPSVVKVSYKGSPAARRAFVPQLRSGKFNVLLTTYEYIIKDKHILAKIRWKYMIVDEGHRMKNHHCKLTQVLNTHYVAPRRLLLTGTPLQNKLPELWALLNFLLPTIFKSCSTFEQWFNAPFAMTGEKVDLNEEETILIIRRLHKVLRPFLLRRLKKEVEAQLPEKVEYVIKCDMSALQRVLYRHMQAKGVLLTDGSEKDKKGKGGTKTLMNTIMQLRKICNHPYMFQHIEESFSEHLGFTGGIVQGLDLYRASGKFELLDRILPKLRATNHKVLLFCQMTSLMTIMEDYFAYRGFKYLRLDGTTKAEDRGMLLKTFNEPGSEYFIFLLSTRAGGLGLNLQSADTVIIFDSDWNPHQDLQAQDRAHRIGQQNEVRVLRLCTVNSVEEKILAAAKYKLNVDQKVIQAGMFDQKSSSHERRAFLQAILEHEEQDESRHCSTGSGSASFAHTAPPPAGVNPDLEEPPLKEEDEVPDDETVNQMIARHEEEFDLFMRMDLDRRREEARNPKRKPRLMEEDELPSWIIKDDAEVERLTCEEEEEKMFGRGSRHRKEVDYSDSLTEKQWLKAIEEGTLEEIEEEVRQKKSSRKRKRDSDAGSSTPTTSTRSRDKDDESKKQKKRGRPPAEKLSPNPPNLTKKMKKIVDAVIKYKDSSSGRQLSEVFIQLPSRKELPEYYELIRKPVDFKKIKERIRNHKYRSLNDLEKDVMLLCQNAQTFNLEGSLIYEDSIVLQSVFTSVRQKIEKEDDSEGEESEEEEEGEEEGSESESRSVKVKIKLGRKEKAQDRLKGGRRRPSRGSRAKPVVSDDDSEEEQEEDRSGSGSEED
- measurement-notes: HiBiT-BRG1 cell-based degradation assay (Nano-Glo HiBiT, 24 h)
- cond: HeLa HiBit-BRG1/LgBit cells, top dose 30 μM, read-out: BRG1 HiBit Degradation Maximum (%)

{"columns": ["compound-smiles", "Dmax"],
 "data": [
  ["Cc1ncsc1-c1ccc([C@H](C)NC(=O)[C@@H]2C[C@@H](O)CN2C(=O)[C@@H](c2cc(-c3cnc(N4CCC(c5ccc6nnc(-c7ccccc7O)cc6c5)CC4)nc3)no2)C(C)C)cc1", "< 50%"],
  ["Cc1ncsc1-c1ccc([C@H](C)NC(=O)[C@@H]2C[C@@H](O)CN2C(=O)[C@H](c2cc(N3CC4(CC(c5ccc6cc(-c7ccccc7O)nnc6c5)C4)C3)no2)C(C)C)cc1", "< 50%"],
  ["Cc1ncsc1-c1ccc([C@H](C)NC(=O)[C@@H]2C[C@@H](O)CN2C(=O)[C@@H](c2cc(N3CC4(CC(c5cc6nnc(-c7ccccc7O)cc6cc5C#N)C4)C3)no2)C(C)C)cc1", "< 50%"],
  ["CNC(=O)[C@@H]1C[C@@H](O)CN1C(=O)[C@@H](c1cc(N2CC3(CN(c4ccc5cc(-c6ccccc6O)nnc5c4)C3)C2)no1)C(C)C", "< 50%"],
  ["Cc1ncsc1-c1ccc([C@H](C)NC(=O)[C@@H]2C[C@@H](O)CN2C(=O)[C@@H](c2cc(N3CCC(C(=O)N4CC(c5ccc6nnc(-c7ccccc7O)cc6c5)C4)CC3)no2)C(C)C)cc1", "> 50%"],
  ["Cc1ncsc1-c1ccc([C@H](C)NC(=O)[C@@H]2C[C@@H](O)CN2C(=O)[C@@H](c2cc(N3CCC(Oc4ccc5nnc(-c6ccccc6O)cc5c4)CC3)no2)C(C)C)cc1", "> 75%"],
  ["Cc1ncsc1-c1ccc([C@H](C)NC(=O)[C@@H]2C[C@@H](O)CN2C(=O)[C@H](c2cc(-c3cnc(N4CCN(c5ccc6cc(-c7ccccc7O)nnc6c5)CC4)nc3)no2)C(C)C)cc1", "< 50%"],
  ["Cc1ncsc1-c1ccc([C@H](C)NC(=O)[C@@H]2C[C@@H](O)CN2C(=O)[C@@H](c2cc(C3CC4(C3)CN(c3ccc5cc(-c6ccccc6O)nnc5c3)C4)no2)C(C)C)cc1", "> 75%"],
  ["Cc1ncsc1-c1ccc([C@H](C)NC(=O)[C@@H]2C[C@@H](O)CN2C(=O)[C@@H](c2cc(-c3cnc(N4CC[C@@H](c5ccc6nnc(-c7ccccc7O)cc6c5)C4)nc3)no2)C(C)C)cc1", "> 50%"],
  ["Cc1ncsc1-c1ccc([C@H](C)NC(=O)[C@@H]2C[C@@H](O)CN2C(=O)[C@H](C(C)C)n2cc(N3CC4(CN(c5ccc6nnc(-c7ccccc7O)cc6c5)CCO4)C3)nn2)cc1", "< 50%"],
  ["Cc1ncsc1-c1ccc([C@H](C)NC(=O)[C@@H]2C[C@@H](O)CN2C(=O)[C@@H](c2cc(-c3cnc(N4CC(c5cc(C6CC6)c6cc(-c7ccccc7O)nnc6c5)C4)nc3)no2)C(C)C)cc1", "< 50%"],
  ["Cc1ncsc1-c1ccc([C@H](C)NC(=O)[C@@H]2C[C@@H](O)CN2C(=O)[C@@H](c2cc(N3CCC(N4CC(c5ccc6nnc(-c7ccccc7O)cc6c5)C4)CC3)no2)C(C)C)cc1", "> 75%"],
  ["Cc1ncsc1-c1ccc([C@H](C)NC(=O)[C@@H]2C[C@@H](O)CN2C(=O)[C@@H](c2cc(N3CCN([C@H]4CCN(c5ccc6cc(-c7ccccc7O)nnc6c5)CC4(F)F)CC3)no2)C(C)C)cc1", "> 75%"],
  ["Cc1ncsc1-c1ccc([C@H](C)NC(=O)[C@@H]2C[C@@H](O)CN2C(=O)[C@@H](c2cc(N3CC4(CCN(c5ccc6cc(-c7ccccc7O)nnc6c5)C4)C3)no2)C(C)C)cc1", "> 75%"],
  ["Cc1cc(N2CCC(c3ccc4cc(-c5ccccc5O)nnc4c3)CC2)ncc1-c1cc([C@H](C(=O)N2C[C@H](O)C[C@H]2C(=O)N[C@@H](C)c2ccc(-c3scnc3C)cc2)C(C)C)on1", "< 50%"],
  ["C#Cc1cc2nnc(-c3ccccc3O)cc2cc1N1CC2(CN(c3cc([C@H](C(=O)N4C[C@H](O)C[C@H]4C(=O)N[C@@H](C)c4ccc(-c5scnc5C)cc4)C(C)C)on3)C2)C1", "> 75%"],
  ["Cc1ncsc1-c1ccc([C@H](C)NC(=O)[C@@H]2C[C@@H](O)CN2C(=O)[C@@H](c2cc(-c3cnc(N4CC(c5ccc6cc(-c7ccccc7O)nnc6c5)C4)nc3)no2)C(C)C)cc1", "< 50%"],
  ["Cc1ncsc1-c1ccc([C@H](C)NC(=O)[C@@H]2C[C@@H](O)CN2C(=O)[C@@H](c2cc(N3CCC4(CC3)CN(c3ccc5nnc(-c6ccccc6O)cc5c3)C4)no2)C(C)C)cc1", "> 75%"],
  ["Cc1ncsc1-c1ccc([C@H](C)NC(=O)[C@@H]2C[C@@H](O)CN2C(=O)[C@@H](c2cc(N3CCC(N4CC(c5ccc6cc(-c7ccccc7O)nnc6c5)C4)CC3)no2)C(C)C)cc1", "< 50%"]
]}

meta.source: patent US20260193264A1
